# Tested on: MCF7 (Breast)
# test: In vitro tumor cell growth inhibition, MTS dye conversion assay, MCF7
# Assay type: cell-based
# condition parameters: Homo sapiens, 4-6 days, read-out: IC50 (concentration associated with 50% inhibition of cell growth)
quantity measured: IC50 (µM)
Answer format: numeric, µM implied, no suffix.

What does the data say about its IC50? Entry: Cc1cc(NC(=O)C(C#N)C(=O)C2CC2)ccc1C(F)(F)F (stereo not shown)
13

###

# Tested on: SW-620 colon cancer cell line
# test: In vitro tumor cell growth inhibition, MTS dye conversion assay, SW-620
# Assay type: cell-based, Human
# condition parameters: Homo sapiens, 4-6 days, read-out: IC50 (concentration associated with 50% inhibition of cell growth)
quantity measured: IC50 (µM)
// note: answer is a bare numeric in µM

Find IC50 (SW-620 colon cancer cell line) for the entry Cc1cc(NC(=O)C(C#N)C(=O)C2CC2)ccc1C(F)(F)F (stereo not shown) [laflunimus]
6

###

# System: CCRF-CEM (Leukemia)
# test: In vitro tumor cell growth inhibition, MTS dye conversion assay, CCRF-CEM
# Assay type: cell-based
# condition parameters: Homo sapiens, 4-6 days, read-out: IC50 (concentration associated with 50% inhibition of cell growth)
quantity measured: IC50 (µM)
Kindly answer with a numeric value in µM, unit omitted.

# get_value(readout='IC50', item= Cc1cc(NC(=O)C(C#N)C(=O)C2CC2)ccc1C(F)(F)F (stereo not shown) )
28
